Catalogue of logP values
Assay: Lipophilicity, log P of the compound
Assay type: physicochemical
Conditions: octanol/water
readout_kind: logP

INSERT INTO measurements (compound, readout_kind, result_value) VALUES
  ('O=C(c1ccccc1)N1CCN(CCCOc2cccc3cccnc23)CC1', 'logP', 3.02),
  ('O=C(c1ccc(Cl)cc1)N1CCN(CCCOc2ccc3ncccc3c2)CC1', 'logP', 3.58),
  ('c1ccc(CN2CCN(CCCOc3ccc4ncccc4c3)CC2)cc1', 'logP', 3.58),
  ('O=C(c1ccc(F)cc1)C1CCN(CCn2c(=O)[nH]c3ccccc3c2=O)CC1 [KETANSERIN]', 'logP', 2.37),
  ('Clc1ccc(CN2CCN(CCCOc3ccc4ncccc4c3)CC2)cc1', 'logP', 4.14),
  ('Clc1ccc(CN2CCN(CCCOc3cccc4cccnc34)CC2)cc1', 'logP', 4.14),
  ('c1ccc(CN2CCN(CCCOc3cccc4cccnc34)CC2)cc1', 'logP', 3.58),
  ('O=C(c1ccc(Cl)cc1)N1CCN(CCCOc2cccc3cccnc23)CC1', 'logP', 3.58),
  ('Cc1nc2n(c(=O)c1CCN1CCC(c3noc4cc(F)ccc34)CC1)CCCC2 [RISPERIDONE]', 'logP', 2.1),
  ('O=C1Cc2cc(CCN3CCN(c4nsc5ccccc45)CC3)c(Cl)cc2N1 [ZIPRASIDONE]', 'logP', 4.67),
  ('O=C(c1ccccc1)N1CCN(CCCOc2ccc3ncccc3c2)CC1', 'logP', 3.02),
  ('CN1CCN(C2=Nc3cc(Cl)ccc3Nc3ccccc32)CC1 [CLOZAPINE]', 'logP', 3.71);
